Each recorded value in this set is attributed to PubChem BioAssay (NCATS).

Assay: AP1 Signaling Pathway (AID 357);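 further: ME-180 reporter cells stimulated with EGF at its EC50 level; on the % scale 0 is the no-effect control and ±100 the full control effect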
Conditions: ME-180 (cervical carcinoma) AP-1-bla reporter, EGF-induced, beta-lactamase ratio, 5 h; at 7.69 µM (top of the series) unless noted
Results filed as inconclusive are left out. Calls of active or inactive are those of the source. The call rests on the fitted dose curve; in most records, active means well fitted curve in either direction with a large enough effect (not every such curve was filed as active); inconclusive means small, poorly fitted or top-dose-only effect, or another doubt; inactive means flat fitted curve, though single readings scatter.
Measurement label: activity change, negative = inhibition

The cases that follow already have their activity change, negative = inhibition on record.
# Structure string, Observed
rows = [
    ("Cc1cccc(CNc2ncnc3ccc(-c4ccoc4)cc23)c1", "-19.9% (inactive)"),
    ("Cn1cccc1C(=O)N1CCC2(CCCN(c3ccccc3)C2)CC1", "-3.96% (inactive)"),
    ("O=c1cnc2cncnc2n1Cc1ccccc1", "-12.8% (inactive)"),
]

Return reported activity change, negative = inhibition values for all items listed beneath this line.
1. CN(C)Cc1ccccc1-c1cncnc1Nc1ccccc1
2. CN(C)c1ccc(-c2cc(-n3ccnc3)ncn2)cc1

["7.98% (inactive)", "2.17% (inactive)"]

State the recorded activity change, negative = inhibition for every item in the following list.
1. O=C(Nc1ccccc1)N1CCC2(CC1)CCN(C(=O)c1csnn1)CC2
2. c1ccc2c(-n3ccnc3)nc(-c3ccoc3)nc2c1
3. COc1ccc2c(c1)c(CC(=O)O)c(C)n2Cc1ccc(F)cc1
4. CN1CCN(c2nc(-c3ccccc3C(F)(F)F)nc3ccccc23)CC1
5. Cc1noc(C)c1C(=O)N1CCC2(CC1)CN(C(=O)Nc1cccc(F)c1)C2

-1.74% (inactive)
-13.9% (inactive)
1.56% [at 38 µM] (inactive)
-3.47% (inactive)
6.42% (inactive)

For O=C(c1csnn1)N1CCC2(CCCN(Cc3cc(C(F)(F)F)cc(C(F)(F)F)c3)C2)CC1 , write its activity change, negative = inhibition.
10.6% (inactive)
